Sourced from ChEMBL document CHEMBL1154198

Property: pEC50; scope: individual molecules
Test: ST_JUDE: Cytotoxicity using luciferase to measure ATP as an indicator of the viability of human foreskin fibroblast cells (BJ)
Format: toxicity, cell-based
pEC50: −log10 of the molar value.

Use these answered entries as a reference point.
pEC50 measured on CC(C)(C)C(=O)N1CCN(c2ccc([N+](=O)[O-])c(NC3CC3)c2)CC1 = < 4.36

Measured pEC50, C=CCN1C=CC=C/C1=C\c1sc2ccccc2[n+]1C : < 4.45

Field pEC50 (entry COc1ccc(NC(=O)C2c3ccccc3C(=O)N(CC(C)C)C2c2cccs2)cc1 (stereo unspecified) ) reads < 4.32

For record C/C=C/c1n(C)c2ccccc2[n+]1C the listed pEC50 is < 4.40

The recorded pEC50 for CC(C)NCC(O)Cn1c2ccc(Cl)cc2c2cc(Cl)ccc21 (stereo unspecified) is < 4.38

Note: attention shifts to another entry.
Given item COC(=O)c1ccc(NC(=O)C2c3ccccc3C(=O)N(CC(C)C)C2c2cccs2)cc1 (stereo unspecified) , the value recorded as its pEC50 is < 4.41

----------
List of EC50 values.
Assay: ST_JUDE: Cytotoxicity using luciferase to measure ATP as an indicator of the viability of human epithelial hepatocellular carcinoma cells (HepG2)
Format: toxicity, cell-based

For this compound ( CCO/C(O)=C1\C(C)=NC2=C(C(=O)CC(c3ccc(OC)c(OC)c3)C2)C1c1ccccc1C (stereo unspecified) ), measured EC50 is > 42.7 µM

Looking up CO/C(O)=C1\C(C)=NC2=C(C(=O)CC(c3ccc(OC)c(OC)c3)C2)C1c1ccccc1C (stereo unspecified) , I found its EC50 recorded as > 41.4 µM

Recorded EC50 (compound COc1ccccc1C1CC2=NC(C)=C(C(=O)OC(C)C)C(c3ccc(Cl)cc3)C2=C(O)C1 (stereo unspecified) ): > 29.9 µM

Value of EC50 reported for the compound COc1ccc(Nc2cc(C)c3ccc(O)cc3n2)cc1 is 43 µM

According to the records, this compound CCN1CCN(Cc2c(O)ccc3c(=O)c(Oc4ccccc4C(C)C)c(C(F)(F)F)oc23)CC1 displays EC50 of > 23.3 µM

According to the records, this compound Oc1ccc(C2NCc3ccccc3-n3cccc32)cc1Cl (stereo unspecified) displays EC50 of > 46 µM

Notebook: CC(=O)N(C1=C(N(C)C)C(=O)c2ccccc2C1=O)c1ccc(F)cc1 , EC50 read as 0.713 µM

Value of EC50 reported for the compound CCc1ccc(S(=O)(=O)NC2=C/C(=N\c3ccccc3OC)C(=O)c3ccccc32)cc1 is 10.3 µM

response.value for Fc1ccc(Nc2nc(NCc3ccccc3)c3ccccc3n2)cc1 (field: EC50) = 6.78 µM

What the record says about CC(C)CN1C(=O)c2ccccc2C(C(=O)Nc2cccc(C#N)c2)C1c1cccs1 (stereo unspecified) : EC50 is > 46.8 µM

---
Query COc1ccc(NC(=O)C2c3ccccc3C(=O)N(CC(C)C)C2c2cccs2)cc1Cl (stereo unspecified) yields EC50 of > 40.4 µM

For this compound ( Cc1ccc(NC(=O)C2c3ccccc3C(=O)N(CC(C)C)C2c2cccs2)c(Cl)c1 (stereo unspecified) ), measured EC50 is > 44.1 µM

Recorded result, COc1cccc(NC(=O)C2c3ccccc3C(=O)N(CC(C)C)C2c2cccs2)c1 (stereo unspecified) , EC50: > 40.8 µM

Field EC50 (entry CC[n+]1c(/C=C/c2ccc(N(C)C)cc2)ccc2cc(OC)ccc21 ) reads 2.99 µM

EC50 recorded for this compound, Cc1cc(Nc2ccc(Br)c(C)c2)n2nc(C)nc2n1 , is > 37.8 µM

Entry Cc1ccc(N2C(N)=NC(N)=NC2(C)C)cc1 — recorded EC50 = > 34.9 µM

Documented EC50 of CSC(=S)N/N=C(\c1ccccc1)c1ccccn1 : > 42.9 µM

According to the records, this compound CCOC(=O)C1(Cc2cccc(C(F)(F)F)c2)CCN(Cc2ccccc2O)CC1 displays EC50 of > 41.3 µM

Quick note, EC50 for Clc1ccc(Nc2nc(NCc3ccco3)c3ccccc3n2)cc1 landed at 24 µM

Query CCOc1ccc(N(C(C)=O)C2=C(N(C)C)C(=O)c3ccccc3C2=O)cc1 yields EC50 of 4.82 µM

// sample CCCO/C(O)=C1\C(C)=NC2=C(C(=O)CC(c3ccc(OC)c(OC)c3)C2)C1c1cccc(Cl)c1 (stereo unspecified) , its EC50 was > 37.7 µM

// EC50 lookup, compound = CCCO/C(O)=C1\C(C)=NC2=C(C(=O)CC(c3ccc(OC)c(OC)c3)C2)C1c1ccccc1F (stereo unspecified) , result: > 41.1 µM

Input N=c1n(CCN2CCCCC2)c2ccccc2n1CC(O)c1ccc(Cl)c(Cl)c1 (stereo unspecified) . Output EC50: 6.97 µM

Value of measured EC50 for the entry CCCO/C(O)=C1\C(C)=NC2=C(C(=O)CC(c3ccc(OC)c(OC)c3)C2)C1c1ccccc1Cl (stereo unspecified) : > 39.1 µM

Reported EC50 ( COc1ccc(C2CC(=O)NC3=C2C(=O)CC(c2ccc(F)cc2)C3)cc1OC (stereo unspecified) ) = > 41.4 µM

Reported EC50 ( COc1ccc(C2CC(=O)C3=C(C2)NC(=O)CC3c2ccc(Br)cc2)cc1OC (stereo unspecified) ) = > 47.5 µM

GET /value?item= CC(C)CN1C(=O)c2ccccc2C(C(=O)Nc2ccc(F)c(Cl)c2)C1c1cccs1 (stereo unspecified) &field=EC50 returns 38.1 µM

// sample CCOC(=O)C1(Cc2cccc(F)c2)CCN(Cc2ccccc2O)CC1 , its EC50 was > 52.6 µM

CC(C)CN1C(=O)c2ccccc2C(C(=O)Nc2ccc(F)cc2F)C1c1cccs1 (stereo unspecified) has a reported EC50 of > 43.3 µM
